experiment: label from the status in PepcDB records
Experimental readout: protein production

Polymer sequence	Experimental readout	Endpoint value
MRGPGSASVRGYGQCKDTLHTSSPFHEAPASVRRPRTTGRVHTLGIRAPPPPRSQPEFLFSGNPFAPVSSVQRDAARRVSPRIPSLDQASRRPVAKLVVPGGNGFIGTEICRVAVQNGHEVAAFGRTGRPALTPARHPWVQDVEWRAADVFAPDAWRDLLDGADAVVHTIATIREHPDRNVTFDRVNAESALRAAEAAVAADVGAVVFLSVRDKPPLVPYAFLSAKRRAERALREDHPSLRTVTLCPNLVYGARKTGTPTLAAVLNQAQGMRPHPYATAEGRPLPVEFVAAAAVQAAVTSTMEGTLTVPQIDDIGRTSGLVDPNAASTPSLAPLLVGLGGTALGAWLLRRWRAS	protein production	failed
MNKRNWTAYYNSTKQNTLPRKSLLKAIANFDKEKINLSKSAIDLGCGAGIDVMELLRCGWSVIAIDSQLSAIDSLLSSAQELTCANKLKTIISSFEALDSLPKVNLINASFSLPFLKPVYFYKFWSVILKGLKPGGRFSGSFFGFNDFWNTRTDMTFLNREMICHLFSQFKIEYFQEEEKDEMDALGYYKHWHKFFIVAKKIALEHHHHHH	protein production	failed

----------
assay: label from the status in PepcDB records
Experimental readout: protein production

Polymer sequence	Endpoint value
MRIVGLTGGIASGKSTVSNLFKASGIPVVDADVVARDVLKKGSGGWKRVVAAFGEEILLPSGEVDRPKLGQIVFSSDSKRQLLNKLMAPYISSGIFWEILKQWASGAKVIVVDIPLLFEVKMDKWTKPIVVVWVSQETQLKRLMERDGLSEEDARNRVMAQMPLDSKRSKADVVIDNNGSLDDLHQQFEKVLIEIRRPLTWIEFWRSRQGAFSVLGSVILGLSVCKQLKIGS	failed
MQDFGDNSGRAPAAGRSWRNTPSSFGVVAIAFHWTIAVLFVAQLALGYLMSRDSIDPVLQFNFFQYHKSIGFLVLALAVPRCLWSVFSRKPRAVDGEGPVSRFAARVAHSALLFLTLAVPLAGWAVASTSPLQIPSYVFDLVVVPGLPMTISDQAEAFWSDVHATLAYLAAVIVLLHVIAALWHHFIRRDPTLRRMLPLPDTTDNSRREISSGQ	failed
MEKVTLIATATMGLEALVAREVKDLGYEDVKVENGKVTFTSDVAAIPRANLWLRTADRVKLKVGEFKALTFDELFEKTKSLPWADIIPVHAEFPVIGRSVKSKLFSVSDCQAIVKKAVVESMKKRYKRGWFDENGPLYRIEVALHKDIATLTIDTSGTGLHKRGYRYLHSQAPLKETLAAAIIMLSHWKSDRPFADPFCGSGTIPIEAAMIGQNIAPGFNREFVSEQWHWIGSEHWDRAREEVEDMANYDQPLDILGSDIDHRMVELAQNNAMEAGFGDLISFKQMQVTDFRHKEEYGILIGNPPYGERIGEREEVEKMYQKMGEVFREHLETWSIYILTSHEGFEELYGKRATKKRKLYNGNIKTDYYQFFGPRPPRHPEGSQQ	failed
MDPRQFEHTVVADNDIHSIVMSYLLHNCFNETADSLASSTGVKQPAIDRDNMERRKQIIHFILERKALKAFELTEQLAQDLLEKNKDLQFDLLCLHFVELICAGNCTEALKFGKTRLAPFGKVKKYVEKLEDVMALLAYEDPEKSPMFHLLSSEYRQQVADNLNRTILEHTNHPSYTPMERIIQQVTVVRQYLTEENGKDAFPPFSLKDSLKG	failed
KNIVVDFTEYNPLHNGHKYCMDFGKSEGLFISVIPGPLERSGRGIPYLVNRHIRAEMALLAGADLVVEGPPMGIMGSGQYMQCLIKIFSALNGDIIPRGYIEEETMERVINSINNGNHIKIKPYNISCIETREKLGEKLEIDNYVIASMSYTIYKLKENFPKWNPKFKFIERIEGISGTKIREGVFNNNFESIKHMLPITTIDVFKNFGDNLSEIILKRNEEMVLDTVNNFDLNKYLPENISEKLNEKEYYESIE	not failed
MGHEAKHPIIIGITGNIGSGKSTVAALLRSWGYPVLDLDALAARARENKEEELKRLFPEAVVGGRLDRRALARLVFSDPERLKALEAVVHPEVRRLLMEELSRLEAPLVFLEIPLLFEKGWEGRLHGTLLVAAPLEERVRRVMARSGLSREEVLARERAQMPEEEKRKRATWVLENTGSLEDLERALKAVLAELTGGAKEGRG	not failed

----------
experiment: label from the status in PepcDB records

Polymer sequence	protein production
MYFLLNLVGLIVIMAVVFLCSPQKKKIKWRPIITLIVLELLITWFMLGTKVGSWAIGKIGDFFTWLIACASDGIAFAFPSVMANETVDFFFSALLPIIFIVTFFDILTYFGILPWLIDKIGWVISKASRLPKLESFFSIQMMFLGNTEALAVIRQQLTVLSNNRLLTFGLMSMSSISGSIIGSYLSMVPATYVFTAIPLNCLNALIIANLLNPVHVPEDEDIIYTPPKEEKKDFFSTISNSMLVGMNMVIVILAMVIGYVALTSAVNGILGVFVHGLTNQTIFAYLFSPFAFLLGLPVHDAMYVAQLMGMKLATNEFVAMLDLKNNLKSLPPHTVAVATTFLTSFANFSTVGMIYGTYNSILDGEKSTVIGRNVWKLLVSGIAVSLLSAAIVGLFVW	failed
MSENLAITIATIVVKLFAIIDPFSVLPFLLAIYEEANRDSQEKVSWNYMINKITIAILILLTLFSLIGRPLLDFLGLSAQALQIAGGVLLVYLGIDTMGGFQQLRFIRSLREAIVTPIATPLLVGPGTMTALISLSVDYNPLELVISSGIVTLLVYLSLLSGPYLVKILGQTGTVAAGRFTAIIIAAFGVQLILSGISQLNFK	failed
MRVVLQMAPPIASGRGGQGLITCPGHKERRVASLNRIAMARSSRRMIKDLGPEGLEVAEISGKWGQQFPFRSYRRFIYPEYDICAGPYCDAAGEIEQFDLILANQVWEHLDRPYEATLNVLEMLRTGGHFWLAVPFFVPFHAAPMDNSRWSARGLRNFLIECGFAEEEIRAEQWGNRHAALRNLERPWPPVYDPETDPLDNDPDFPICAWAIARKT	failed

----------
assay: label from the status in PepcDB records

Polymer sequence	protein production
MIDEPTGLYNRLRLQEDVSLRLQRDGALTVIAADLLPLALLNTIIRTLGYPFSNDLMLEARDRIRAELPDFTLYKISPTRFGLLLPRQQQEETESVCLRLLRAFESPVVCRGIPIKANVGLGVLPLADDTLDGDQDWLRLVVSAADDARDRGVGWARYNPPLDQAQQRLEHHHHHH	not failed
MAVAAAKYTTGFWINTIVIILIIAYLVYQLYLYWKRGKISTQLDDDEFRAGMRKAQVIDVREKKEFDAGHILGARNIPYSQMKNRTQELRSDLPVYLYDQGRTFSGRAAMLLSKKGFTQLYILKNGYQRWTGKTKKTKY	failed
MKALNDSYDVVVVGAGPAGSMASYNASKNGAKTLLIEKSQEIGTPVRCAEAVPRLEDFGINPDPSFVKSYIRGGYLIAPNGKKIVVKGGKTDGYVVERKVFDKFLAIRSGQAGTQIAVKSRVTKIEKTDDGYNVFVNYLGDEYIVKSKIVIAADGVESNIAEYAGLKSKKNPKEICSCAEYEMTNVKLLNNEMMEFYFGDICPKGYIWLFPKGDTVNVGIGVIDSKKRAIDYLDEFLTHPLVEGRLDNAVPVEFKVGGDPVGGPIKKTVADNIMVVGDAAGHVSPLTGGGIGLSMDCGLMAGDVAAQSIKAENYSEEFLDLYEKKWKEKYYKLLMNDLKYKNILQKLSDDELNAIANSIPENLEEVDVGKLAIKIVAKAPSLLRHFKELL	failed
MYEIKGHHHISMVTKNANENNHFYKNVLGLRRVKMTVNQDDPSMYHLFYGDKTGSPGTELSFFEIPLVGRTYRGTNAITRIGLLVPSEDSLHYWKERFEKFDVKHSEMTTYANRPALQFEDAEGLRLVLLVSNGEKVEHWETWEKSEVPAKHQIQGMGSVELTVRRLDKMASTLTEIFGYTEVSRNDQEAIFQSIKGEAFGEIVVKYLDGPTEKPGRGSIHHLAIRVKNDAELAYWEEQVKQRGFHSSGIIDRFYFKSLYFRESNGILFEIATDGPGFTVDGDVEHLGEKLDLPPFLEDQRAEIEANLAPIEEK	not failed
MIKVKSPGRVNLIGEHTDYTYGYVMPMAINLYTKIEAEKHGEVILYSEHFGEERKFSLNDLRKENSWIDYVKGIFWVLKESDYEVGGIKGRVSGNLPLGAGLSSSASFEVGILETLDKLYNLKLDSLSKVLLAKKAENEFVGVPCGILDQFAVVFGREGNVIFLDTHTLDYEYIPFPKDVSILVFYTGVRRELASSEYAERKHIAEESLKILGKGSSKEVREGELSKLPPLHRKFFGYIVRENARVLEVRDALKEGNVEEVGKILTTAHWDLAKNYEVSCKELDFFVERALKLGAYGARLTGAGFGGSAIALVDKEDAETIGEEILREYLKRFPWKARHFIVEPSDGVGI	not failed
MMIIGINGSPRKNGNTIEMLKSALDGAKAQGAETELINLYDYNYKGCVSCFSCKLKGGRSYGKCALKDDLKPILEKIEKADAFILASPIYFGMVTGEMRSFMERLLFQYLVYDKDHSSLFNRKIKTGFIYTMNVPETYLDSVGYNKLFESNEATLKRIFGASEYILSTDTYQFDDYSKYEASMFDVEAKKKRREEVFPEDCKRAYEMGASFVKLEHHHHHH	failed
MVGRRVSPALTKDDAHSYIIAVKETFHDEPTKYQEFIKLLNGVCDHRVDKYSVIARVEELMKDHQDLLLGFSVFLPPVSVEDFINKLKSKFVHLQTRFQSLDTHVVGAIRGLMKMFKEGKMSVKEVQEEVIDVLFYHEDLIEDFLRFFTKNPVSTASLLLQL	failed
MIKGFRLWILIVSLGLSFSFLGYQWLTRYNFNTDHQVGDVIDSLNGVEIYYNGGVNTNEGRNLSLDGYNLGIKYQCVEFVKRYFYQRYQHQMPDSFGHARDFFDNLLTDGSWNEKRALRQFTNGSQSKPMADDLLVFAPWILNPYGHVAIIAAVTDKGIEIAQQNPGPFAPSREYFPLIQRDGLWYIDAPRAKGWLRWEATSPNVATENSGFIDPVMVIKELEHHHHHH	not failed
AKGKNVIVLHLESFQQFLIDYKLNIDGKQYEVTPFLNSLYHSKETFAFSNFFHQVKAGKTSDAETLMETSLFGLNQGSFFVQYGGDNTQQAAPHILKDTNNYSSAVFHGNIGTFWNRNNAYKQLGYQHFFDQSYMSKMTKDNSFQYGLNDKVMFADSIKYLEHMQQPFYTKFITVSNHYPYQSLDGDDTGFPLAKTEDKTINGYFATANYLDAAIKDFFDYLKASGLYKNSIIVMYGDHYGIANSRNTDLAPLLGKDSQTWTEYNNAMLQRVPYMIHVPGTDKGFISNTYGGEVDALPTLLHLLGIDNKNYIELGQDLLSPNNKQLVAFRSEGNYITPNYTSYSGRVYDTKTGV	failed
MTGSCLCQGIRYEISGHGLGDIIECHCQRCRKANGTAYATNTPVHVDDFKIVQGEHLLKKYQSTPTTQRCFCSECGSPIMSIKTDTPEYYRLRIGTLDTKIEQKPSMHIFAAHKAEWDTITDDLPQYAERP	failed
MPLVSMKEMLNKALEGKYAVGQFNMNNLEWTQAILAAAEEEKSPVILGVSEGAARHMTGFKTVVAMVKALIEEMNITVPVAIHLDHGSSFEKCKEAIDAGFTSVMIDASHHPFEENVETTKKVVEYAHARNVSVEAELGTVGGQEDDVIAEGVIYADPAECKHLVEATGIDCLAPALGSVHGPYKGEPNLGFAEMEQVRDFTGVPLVLHGGTGIPTADIEKAISLGTSKINVNTENQIEFTKAVREVLNKDQEVYDPRKFIGPGRDAIKATVIGKIREFGSNGKA	not failed
MSYFDQDDKEVLAPNSDVIAATTTTATTATHGIEVATEFKPVEHPVEPLDNDLPIQCPLPEPSILNDGRIWKERVSASMRRKGDLQIVKDEAASESDGSAPKPPRPPQPNRSILPSLSAPEHNLLNLLEECNAMPPVTSKNG	failed

All values here come from a protein production outcome set (Wang et al. 2014).
